# MEASUREMENT_PROTOCOL: in vitro
# TEST_PARAMETERS: rat, gh3-tre-luc cells, AC50 (uM) modified / 1000
Structures can show the parent of a compound that is named as a salt.
Reported CC50 at 24 h values follow for various compounds

The following compounds have reported results that may help.
Tell me the measured CC50 at 24 h of CCCCCC(C)=O [2-Heptanone] , please. > 90 µM

Look up CC50 at 24 h: Cc1ccc(/C=N/n2c(-c3ccccc3)csc2=S)cc1 [Fezatione] > 50 µM

I am curious: what CC50 at 24 h value has been reported for Cc1cc(-n2nc3ccc(Cl)cc3n2)c(O)c(C(C)(C)C)c1 [Bumetrizole] ? > 50 µM

Field request: CC50 at 24 h | item: CC(N)Cc1ccc(O)cc1 (stereo not shown) [Hydroxyamphetamine hydrobromide] > 50 µM

Using the record for CC/C=C\C/C=C\C/C=C\CCCCCCCC(=O)O [Linolenic acid] , report its CC50 at 24 h. > 90 µM

Value lookup for CC50 at 24 h; key = CNC(=O)NC [N,N'-Dimethylurea] > 90 µM

***
Suppose we examine the compound COc1ccc(OC)c(NC(=O)CC(C)=O)c1 [N-(2,5-Dimethoxyphenyl)-3-oxobutanamide] ; what CC50 at 24 h value has been reported? > 90 µM

Please give the measured CC50 at 24 h for this compound: COCCOCCO [Diethylene glycol monomethyl ether] > 90 µM

I would be grateful if you could share the reported CC50 at 24 h for CC1(C)OC[C@@H]2O[C@@]3(C(=O)O)OC(C)(C)O[C@H]3[C@@H]2O1 [Dikegulac] . > 90 µM

Query: CC50 at 24 h; subject: CC(=O)OCCC(C)C [3-Methylbutyl acetate] > 90 µM

* * *

# MEASUREMENT_PROTOCOL: in vitro
# TEST_PARAMETERS: rat, gh3-tre-luc cells, AC50 (uM) modified / 1000, Tox21_110001=Tox21_112833; viability, 1 nM T3 present, 24 h
ASSAY_METRIC: CC50 at 24 h (µM)
Give the value in µM but do not write µM after it.

Please look up its CC50 at 24 h: `CC(=O)OC1(c2ccccc2)CCN(CCc2ccccc2)CC1` 84.5

* * *

Listed below: CC50 at 24 h values for each entry.
# MEASUREMENT_PROTOCOL: in vitro
# TEST_PARAMETERS: rat, gh3-tre-luc cells, AC50 (uM) modified / 1000

Here are 3 compounds together with their reported answers.
Would you mind telling me what CC50 at 24 h value was observed for `CO/N=C(/C(=O)OC)c1ccccc1CO/N=C(\C)c1cccc(C(F)(F)F)c1` ? 36.9 µM

I have this compound here, C=COC(=O)C(C)(C)CCCCCC [Vinyl neodecanoate] , and I need its recorded CC50 at 24 h. > 90 µM

I would be grateful if you could share the reported CC50 at 24 h for `Cc1cc(S(=O)(=O)O)c(N)cc1Cl` . > 90 µM

New cases:
Fill blank: measured CC50 at 24 h of the compound `CCOC(=O)Nc1ccc2c(c1)N(C(=O)CN(C)C)c1ccccc1CC2` is ____. 41.3 µM

What measured CC50 at 24 h goes with CC(O)COC(C)(C)C (stereo not shown) ? > 90 µM

Please look up its CC50 at 24 h: `CCNc1nc(NC(C)(C)C)nc(SC)n1` > 90 µM

Any idea what CC50 at 24 h was measured for `O=C(O)CN1C(=O)c2cccc3cccc(c23)C1=O` ? > 50 µM

Fill blank: measured CC50 at 24 h of the compound `CN1CCN(CCCN2c3ccccc3Sc3ccccc32)CC1` is ____. 16.5 µM

Name the reported CC50 at 24 h value associated with the compound OCC(CO)(CBr)CBr [Pentaerythritol dibromide] > 90 µM

Which value of CC50 at 24 h has been reported for CC1=NC(C)OC1C (stereo not shown) in the records? > 90 µM
